- System: Epidermal growth factor receptor (Homo sapiens), P00533 [L858R]
- Sequence (P00533 whole entry L858R): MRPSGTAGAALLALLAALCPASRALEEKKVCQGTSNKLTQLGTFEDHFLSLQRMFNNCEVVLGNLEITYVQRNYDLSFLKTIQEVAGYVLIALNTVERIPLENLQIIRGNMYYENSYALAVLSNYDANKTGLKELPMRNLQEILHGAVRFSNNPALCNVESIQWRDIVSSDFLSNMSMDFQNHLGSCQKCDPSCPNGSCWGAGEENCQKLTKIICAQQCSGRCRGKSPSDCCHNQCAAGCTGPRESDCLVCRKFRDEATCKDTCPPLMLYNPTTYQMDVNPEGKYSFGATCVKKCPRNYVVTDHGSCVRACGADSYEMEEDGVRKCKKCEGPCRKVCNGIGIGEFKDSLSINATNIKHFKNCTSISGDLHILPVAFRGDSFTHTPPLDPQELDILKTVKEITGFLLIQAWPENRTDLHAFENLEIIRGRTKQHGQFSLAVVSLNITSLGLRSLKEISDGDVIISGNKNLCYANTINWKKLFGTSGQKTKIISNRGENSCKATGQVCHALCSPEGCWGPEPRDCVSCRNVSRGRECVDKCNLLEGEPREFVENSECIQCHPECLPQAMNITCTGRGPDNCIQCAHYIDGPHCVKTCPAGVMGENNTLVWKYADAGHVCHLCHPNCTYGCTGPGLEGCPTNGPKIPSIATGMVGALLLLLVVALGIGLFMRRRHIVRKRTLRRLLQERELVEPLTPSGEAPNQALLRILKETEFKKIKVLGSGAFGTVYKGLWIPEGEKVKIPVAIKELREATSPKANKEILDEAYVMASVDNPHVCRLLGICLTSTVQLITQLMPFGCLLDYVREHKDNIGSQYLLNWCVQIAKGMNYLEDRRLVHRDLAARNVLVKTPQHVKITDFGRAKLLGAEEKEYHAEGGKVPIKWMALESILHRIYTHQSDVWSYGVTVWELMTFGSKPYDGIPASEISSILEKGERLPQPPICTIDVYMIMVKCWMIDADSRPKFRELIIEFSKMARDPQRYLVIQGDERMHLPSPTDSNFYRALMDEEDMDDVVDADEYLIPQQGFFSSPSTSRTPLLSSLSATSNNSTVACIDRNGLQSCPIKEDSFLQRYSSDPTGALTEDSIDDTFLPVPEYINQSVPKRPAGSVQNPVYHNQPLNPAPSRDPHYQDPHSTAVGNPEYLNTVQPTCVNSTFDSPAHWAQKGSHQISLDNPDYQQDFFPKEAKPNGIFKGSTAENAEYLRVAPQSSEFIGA
- cond: BaF3, time 72.0 hrs
observed-property: GI50 (µM)

Below, 5 compounds whose answers are already recorded.
>>> value_measured("COc1cc2c(Nc3ccc([N+](=O)[O-])cc3)ncnc2cc1OCCCOc1ccc(-c2cssc2=S)cc1")
0.6
>>> value_measured("COc1cc2c(Nc3cccc(C(F)(F)F)c3)ncnc2cc1OCCCOc1ccc(-c2cssc2=S)cc1")
0.38
>>> value_measured("O=C(COc1ccc(-c2cssc2=O)cc1)Nc1ccc2ncnc(Nc3ccc(F)c(Cl)c3)c2c1")
0.29
>>> value_measured("COc1cc2c(Nc3ccc(Br)cc3)ncnc2cc1OCCCOc1ccc(-c2cssc2=S)cc1")
0.25
>>> value_measured("COc1ccc(Nc2ncnc3cc(OCCCOc4ccc(-c5cssc5=S)cc4)c(OC)cc23)cc1OC")
0.83

[1] COc1cc2c(Nc3ccc(F)c(Cl)c3)ncnc2cc1OCCCOc1ccc(-c2cssc2=S)cc1
[2] COc1cc2c(Nc3cccc(Br)c3)ncnc2cc1OCCCOc1ccc(-c2cssc2=S)cc1
Rank 1 against 2 by their GI50 values and give the higher one. Give the chosen item's label as your response.
1
(1: 0.27 µM, 2: 0.12 µM)

[I] C=CCCSSCC(=O)Nc1ccc2ncnc(Nc3ccc(F)c(Cl)c3)c2c1
[II] C=CCSSCCC(=O)OCCCOc1cc2ncnc(Nc3cccc(Br)c3)c2cc1OC
[III] C=CCSSCCC(=O)OCCCOc1cc2ncnc(Nc3ccc(Br)cc3)c2cc1OC
Rank ascending by GI50. Your reply should list the labels following the order given in the request.
II, I, III

* * *

- Tested on: Epidermal growth factor receptor (Homo sapiens), P00533 [L858R]
- cond: NCI-H3255, time 72.0 hrs
observed-property: GI50 (nM)

>>> value_measured("C=CCSSCCC(=O)OCCCOc1cc2ncnc(Nc3ccc(Br)cc3)c2cc1OC")
1350

[I] COc1cc2c(Nc3ccc([N+](=O)[O-])cc3)ncnc2cc1OCCCOc1ccc(-c2cssc2=S)cc1
[II] C=CCCSSCC(=O)Nc1ccc2ncnc(Nc3ccc(F)c(Cl)c3)c2c1
Lower value for measured GI50? Options: I , II // caller expects the label of the chosen entry
II

* * *

- assayed-target: Epidermal growth factor receptor (Homo sapiens) (UniProt P00533)
- Sequence (P00533 whole entry): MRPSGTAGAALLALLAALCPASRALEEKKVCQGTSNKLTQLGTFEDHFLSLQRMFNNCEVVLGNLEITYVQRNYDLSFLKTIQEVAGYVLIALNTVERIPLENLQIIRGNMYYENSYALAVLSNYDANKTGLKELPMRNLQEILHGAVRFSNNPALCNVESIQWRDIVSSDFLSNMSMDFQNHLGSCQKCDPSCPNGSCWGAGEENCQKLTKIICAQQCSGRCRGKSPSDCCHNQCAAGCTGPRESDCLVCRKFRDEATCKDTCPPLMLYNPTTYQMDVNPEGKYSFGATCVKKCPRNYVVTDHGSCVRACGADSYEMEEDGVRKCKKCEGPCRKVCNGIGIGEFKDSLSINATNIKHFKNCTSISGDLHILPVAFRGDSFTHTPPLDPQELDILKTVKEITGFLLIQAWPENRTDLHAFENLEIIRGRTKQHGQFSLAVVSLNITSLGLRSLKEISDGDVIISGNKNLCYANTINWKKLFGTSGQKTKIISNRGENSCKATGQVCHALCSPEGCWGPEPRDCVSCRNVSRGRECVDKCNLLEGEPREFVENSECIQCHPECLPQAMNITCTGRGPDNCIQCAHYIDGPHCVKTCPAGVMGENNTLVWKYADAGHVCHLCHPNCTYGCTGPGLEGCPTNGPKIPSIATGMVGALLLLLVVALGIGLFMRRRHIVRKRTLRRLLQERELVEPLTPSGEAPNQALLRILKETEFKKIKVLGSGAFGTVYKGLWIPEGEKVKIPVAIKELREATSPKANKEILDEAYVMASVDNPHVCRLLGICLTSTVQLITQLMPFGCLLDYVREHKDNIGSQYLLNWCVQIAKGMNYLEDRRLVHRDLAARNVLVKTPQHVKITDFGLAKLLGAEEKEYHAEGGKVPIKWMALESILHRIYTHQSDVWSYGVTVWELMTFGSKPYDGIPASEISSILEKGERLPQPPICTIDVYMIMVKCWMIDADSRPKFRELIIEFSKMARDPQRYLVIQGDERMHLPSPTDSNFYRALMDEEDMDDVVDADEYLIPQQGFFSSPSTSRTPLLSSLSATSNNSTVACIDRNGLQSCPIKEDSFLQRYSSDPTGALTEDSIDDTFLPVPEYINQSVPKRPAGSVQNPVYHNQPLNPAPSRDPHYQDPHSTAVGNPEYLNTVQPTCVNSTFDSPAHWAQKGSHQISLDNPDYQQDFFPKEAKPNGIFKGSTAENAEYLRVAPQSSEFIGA
- cond: BaF3, time 72.0 hrs
observed-property: GI50 (µM)

Reference set, count: 2
>>> value_measured("COc1cc2c(Nc3cccc(C(F)(F)F)c3)ncnc2cc1OCCCOc1ccc(-c2cssc2=S)cc1")
1.98
>>> value_measured("COc1cc2c(Nc3ccc(Br)cc3)ncnc2cc1OCCCOc1ccc(-c2cssc2=S)cc1")
9.56

[a] C=CCSSCCC(=O)OCCCOc1cc2ncnc(Nc3ccc(Br)cc3)c2cc1OC
[b] COc1ccc(Nc2ncnc3cc(OCCCOc4ccc(-c5cssc5=S)cc4)c(OC)cc23)cc1OC
Hi, I'm comparing two records. Which one has the lower GI50, a or b ? The response must carry the label of the picked entry.
a
(a: 2.34 µM, b: 3.39 µM)

* * *

- assayed-target: Epidermal growth factor receptor (Homo sapiens) (UniProt P00533)
- cond: BaF3, time 72.0 hrs
observed-property: GI50 (µM)

>>> value_measured("COc1cc2c(Nc3cccc(Br)c3)ncnc2cc1OCCCOc1ccc(-c2cssc2=S)cc1")
3.06

[a] COc1cc2c(Nc3ccc([N+](=O)[O-])cc3)ncnc2cc1OCCCOc1ccc(-c2cssc2=S)cc1
[b] O=C(COc1ccc(-c2cssc2=O)cc1)Nc1ccc2ncnc(Nc3ccc(F)c(Cl)c3)c2c1
Among a and b , which shows a numerically higher GI50 result? State your choice using its label.
a

* * *

- Test system: Epidermal growth factor receptor (Homo sapiens), P00533 [L858R,T790M]
- Sequence (P00533 whole entry T790M/L858R, looked up): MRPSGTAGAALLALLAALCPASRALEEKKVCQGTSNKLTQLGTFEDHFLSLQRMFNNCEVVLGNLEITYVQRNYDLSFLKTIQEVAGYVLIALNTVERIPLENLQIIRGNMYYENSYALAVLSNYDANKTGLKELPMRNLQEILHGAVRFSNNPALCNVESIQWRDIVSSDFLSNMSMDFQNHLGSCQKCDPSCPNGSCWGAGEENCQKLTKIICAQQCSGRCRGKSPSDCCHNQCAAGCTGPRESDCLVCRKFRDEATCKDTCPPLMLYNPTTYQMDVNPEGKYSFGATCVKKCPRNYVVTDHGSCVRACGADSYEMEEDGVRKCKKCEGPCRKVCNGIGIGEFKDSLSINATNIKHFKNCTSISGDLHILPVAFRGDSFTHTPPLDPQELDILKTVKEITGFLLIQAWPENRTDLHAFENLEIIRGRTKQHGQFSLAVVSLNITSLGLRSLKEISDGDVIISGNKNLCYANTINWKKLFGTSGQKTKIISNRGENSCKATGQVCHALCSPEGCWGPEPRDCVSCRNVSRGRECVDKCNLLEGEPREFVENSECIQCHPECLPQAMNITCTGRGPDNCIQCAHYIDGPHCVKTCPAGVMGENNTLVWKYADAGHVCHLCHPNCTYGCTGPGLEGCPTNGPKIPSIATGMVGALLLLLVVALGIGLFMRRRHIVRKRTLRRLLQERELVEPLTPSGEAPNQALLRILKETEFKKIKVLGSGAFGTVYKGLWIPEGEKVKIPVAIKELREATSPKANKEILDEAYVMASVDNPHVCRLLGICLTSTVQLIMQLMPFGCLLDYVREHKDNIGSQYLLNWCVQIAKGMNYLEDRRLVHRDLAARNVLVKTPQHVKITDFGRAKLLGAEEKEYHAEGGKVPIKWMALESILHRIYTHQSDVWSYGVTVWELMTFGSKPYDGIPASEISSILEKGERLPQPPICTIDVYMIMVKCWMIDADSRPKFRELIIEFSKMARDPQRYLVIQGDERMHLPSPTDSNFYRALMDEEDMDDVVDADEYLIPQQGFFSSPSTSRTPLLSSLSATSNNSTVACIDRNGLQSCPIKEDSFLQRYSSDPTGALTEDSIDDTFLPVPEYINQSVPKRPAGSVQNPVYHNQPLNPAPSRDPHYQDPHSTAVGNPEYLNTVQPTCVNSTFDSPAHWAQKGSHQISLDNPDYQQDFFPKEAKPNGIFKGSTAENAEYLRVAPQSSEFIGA
- cond: BaF3, time 72.0 hrs
observed-property: GI50

See these solved cases before continuing.
>>> value_measured("COc1cc2c(Nc3ccc(Br)cc3)ncnc2cc1OCCCOc1ccc(-c2cssc2=S)cc1")
"> 10 µM"
>>> value_measured("C=CCSSCCC(=O)OCCCOc1cc2ncnc(Nc3cccc(Br)c3)c2cc1OC")
"6.03 µM"
>>> value_measured("COc1cc2c(Nc3ccc(F)c(Cl)c3)ncnc2cc1OCCCOc1ccc(-c2cssc2=S)cc1")
"> 10 µM"
>>> value_measured("C=CCCSSCC(=O)Nc1ccc2ncnc(Nc3cccc(Br)c3)c2c1")
"> 10 µM"
>>> value_measured("C=CCSSCCC(=O)OCCCOc1cc2ncnc(Nc3ccc(Br)cc3)c2cc1OC")
"> 10 µM"
>>> value_measured("COc1cc2c(Nc3ccc([N+](=O)[O-])cc3)ncnc2cc1OCCCOc1ccc(-c2cssc2=S)cc1")
"> 10 µM"

State the recorded GI50 for this entry: COc1cc2c(Nc3cccc(C(F)(F)F)c3)ncnc2cc1OCCCOc1ccc(-c2cssc2=S)cc1
1.65 µM

// lookup GI50 for COc1ccc(Nc2ncnc3cc(OCCCOc4ccc(-c5cssc5=S)cc4)c(OC)cc23)cc1OC
6.35 µM

Give its GI50 value. Item: C=CCCSSCC(=O)Nc1ccc2ncnc(Nc3ccc(F)c(Cl)c3)c2c1
> 10 µM

I have this compound here, O=C(COc1ccc(-c2cssc2=O)cc1)Nc1ccc2ncnc(Nc3ccc(F)c(Cl)c3)c2c1 , and I need its recorded GI50.
3.16 µM

I have this compound here, COc1cc2c(Nc3cccc(Br)c3)ncnc2cc1OCCCOc1ccc(-c2cssc2=S)cc1 , and I need its recorded GI50.
> 10 µM

* * *

- assayed-target: UniProt:Q01279
- Sequence (Q01279 whole entry): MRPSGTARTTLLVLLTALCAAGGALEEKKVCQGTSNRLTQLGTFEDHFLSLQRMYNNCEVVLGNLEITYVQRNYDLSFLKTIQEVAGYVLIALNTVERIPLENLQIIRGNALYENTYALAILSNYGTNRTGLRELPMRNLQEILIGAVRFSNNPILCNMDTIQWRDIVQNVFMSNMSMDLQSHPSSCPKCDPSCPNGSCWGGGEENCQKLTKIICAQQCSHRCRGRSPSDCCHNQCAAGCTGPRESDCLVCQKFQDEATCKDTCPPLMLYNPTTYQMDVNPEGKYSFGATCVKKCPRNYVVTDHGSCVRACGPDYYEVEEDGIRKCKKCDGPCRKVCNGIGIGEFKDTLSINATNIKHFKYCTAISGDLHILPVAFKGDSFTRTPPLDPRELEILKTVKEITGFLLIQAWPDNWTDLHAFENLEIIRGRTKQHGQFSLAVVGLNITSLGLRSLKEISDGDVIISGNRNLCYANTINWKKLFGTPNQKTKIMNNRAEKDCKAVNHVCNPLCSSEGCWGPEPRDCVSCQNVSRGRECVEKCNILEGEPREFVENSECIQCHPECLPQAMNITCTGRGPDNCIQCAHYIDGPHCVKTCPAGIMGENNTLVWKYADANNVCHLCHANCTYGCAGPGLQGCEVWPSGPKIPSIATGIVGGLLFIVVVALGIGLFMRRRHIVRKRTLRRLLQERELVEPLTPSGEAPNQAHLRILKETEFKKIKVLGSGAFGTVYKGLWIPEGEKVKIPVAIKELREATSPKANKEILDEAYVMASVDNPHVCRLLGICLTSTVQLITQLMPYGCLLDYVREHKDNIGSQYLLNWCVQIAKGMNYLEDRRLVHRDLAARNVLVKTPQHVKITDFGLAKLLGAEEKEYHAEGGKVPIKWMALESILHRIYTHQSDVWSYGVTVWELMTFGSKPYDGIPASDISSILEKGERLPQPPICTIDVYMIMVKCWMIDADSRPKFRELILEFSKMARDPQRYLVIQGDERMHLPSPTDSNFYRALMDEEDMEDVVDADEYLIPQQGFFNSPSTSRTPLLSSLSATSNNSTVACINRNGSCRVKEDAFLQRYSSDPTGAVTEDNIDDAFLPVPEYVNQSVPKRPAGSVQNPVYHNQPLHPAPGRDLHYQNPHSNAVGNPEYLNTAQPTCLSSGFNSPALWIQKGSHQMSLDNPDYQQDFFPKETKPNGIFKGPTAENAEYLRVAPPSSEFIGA
- cond: BaF3, time 72.0 hrs
observed-property: GI50 (µM)

>>> value_measured("C=CCSSCCC(=O)OCCCOc1cc2ncnc(Nc3ccc(Br)cc3)c2cc1OC")
3.91

[I] COc1cc2c(Nc3cccc(C(F)(F)F)c3)ncnc2cc1OCCCOc1ccc(-c2cssc2=S)cc1
[II] COc1cc2c(Nc3ccc(Br)cc3)ncnc2cc1OCCCOc1ccc(-c2cssc2=S)cc1
[III] COc1ccc(Nc2ncnc3cc(OCCCOc4ccc(-c5cssc5=S)cc4)c(OC)cc23)cc1OC
Exam item: list the entries in increasing order of GI50. Reply format: the labels, ordered as requested.
III, I, II
(III: 2.65 µM, I: 3.79 µM, II: 9.23 µM)

[I] COc1cc2c(Nc3ccc([N+](=O)[O-])cc3)ncnc2cc1OCCCOc1ccc(-c2cssc2=S)cc1
[II] COc1cc2c(Nc3cccc(Br)c3)ncnc2cc1OCCCOc1ccc(-c2cssc2=S)cc1
Which entry has a larger number for GI50, I or II ? Selection: enter the item's label.
II

* * *

- Tested on: Epidermal growth factor receptor (Homo sapiens), P00533 [L858R]
- cond: NCI-H3255, time 72.0 hrs
observed-property: GI50 (nM)

>>> value_measured("C=CCCSSCC(=O)Nc1ccc2ncnc(Nc3cccc(Br)c3)c2c1")
520

[P] COc1cc2c(Nc3ccc(Br)cc3)ncnc2cc1OCCCOc1ccc(-c2cssc2=S)cc1
[Q] COc1cc2c(Nc3cccc(Br)c3)ncnc2cc1OCCCOc1ccc(-c2cssc2=S)cc1
[R] O=C(COc1ccc(-c2cssc2=O)cc1)Nc1ccc2ncnc(Nc3ccc(F)c(Cl)c3)c2c1
[S] C=CCSSCCC(=O)OCCCOc1cc2ncnc(Nc3cccc(Br)c3)c2cc1OC
[T] COc1cc2c(Nc3cccc(C(F)(F)F)c3)ncnc2cc1OCCCOc1ccc(-c2cssc2=S)cc1
List items by GI50 in falling order. I'd appreciate it if you listed the labels in the requested order.
T, R, Q, P, S
(T: 7470 nM, R: 4360 nM, Q: 2400 nM, P: 1410 nM, S: 787 nM)

* * *

- assayed-target: Epidermal growth factor receptor (Mus musculus)
- cond: BaF3, time 72.0 hrs
observed-property: GI50

>>> value_measured("O=C(COc1ccc(-c2cssc2=O)cc1)Nc1ccc2ncnc(Nc3ccc(F)c(Cl)c3)c2c1")
"4.27 µM"
>>> value_measured("C=CCCSSCC(=O)Nc1ccc2ncnc(Nc3ccc(F)c(Cl)c3)c2c1")
"> 10 µM"
>>> value_measured("COc1cc2c(Nc3ccc(F)c(Cl)c3)ncnc2cc1OCCCOc1ccc(-c2cssc2=S)cc1")
"> 10 µM"
>>> value_measured("C=CCSSCCC(=O)OCCCOc1cc2ncnc(Nc3cccc(Br)c3)c2cc1OC")
"> 10 µM"

State the recorded GI50 for this entry: C=CCCSSCC(=O)Nc1ccc2ncnc(Nc3cccc(Br)c3)c2c1
> 10 µM
